Quick reference for IC50 among some compounds
Protocol Details: WHO-TDR: Cytotoxicity
Type: toxicity, cell-based
Condition Set: human, MRC5 cells

>>> endpoint_value("CCOc1ccc(N2CC(CNS(=O)(=O)c3c(C)cc(C)cc3C)CC2=O)cc1 (stereo not drawn)")
"> 12.5 µg/mL"

Name the recorded IC50 for CCSc1nnc(NC(=O)c2cc(=O)c(OCc3ccc(F)cc3)cn2C)s1 .
> 12.6 µg/mL

For the compound shown here, O=C(CC(c1ccccc1)c1ccccc1)NCCCn1nc(-c2ccncc2)ccc1=O , give the reported IC50.
> 13.2 µg/mL

What value of measured IC50 is listed for CCOc1ccc(N2CC(CNS(=O)(=O)c3cccc(C(F)(F)F)c3)CC2=O)cc1 (stereo not drawn) ?
> 13.3 µg/mL
